Test system: K. pneumoniae 81 KPC-3-positive
experimentalProtocol: checkerboard microdilution, antibiotic plus tested agent
Assay type: cell-based, Klebsiella pneumoniae
quantityName: Average FICI with MEM

>>> assayresult("OB(O)c1ccc(B(O)O)c(F)c1")
0.28
>>> assayresult("OB(O)c1cc(F)ccc1F")
0.23
>>> assayresult("OB(O)c1ccc(F)cc1B(O)O")
0.18
>>> assayresult("OB(O)c1ccccc1B(O)O")
0.10
>>> assayresult("OB(O)c1ccc(B(O)O)cc1")
0.24
>>> assayresult("OB(O)c1cc(F)c(B(O)O)c(F)c1")
0.29
>>> assayresult("OB(O)c1cc(F)c(B(O)O)cc1F")
0.46
>>> assayresult("OB(O)c1ccccc1 [PBA, phenylboronic acid, reference compound]")
0.51

* * *

# Average FICI with MEM values compiled below
System: K. pneumoniae 83 KPC-3-positive, CTX-M-3-positive
experimentalProtocol: checkerboard microdilution, antibiotic plus tested agent
Type: cell-based, Klebsiella pneumoniae
quantityName: Average FICI with MEM

>>> assayresult("OB(O)c1cc(F)ccc1F")
0.47
>>> assayresult("OB(O)c1ccc(B(O)O)c(F)c1")
0.60
>>> assayresult("OB(O)c1ccccc1 [PBA, phenylboronic acid, reference compound]")
0.35
>>> assayresult("OB(O)c1cc(F)c(B(O)O)c(F)c1")
0.61
>>> assayresult("OB(O)c1cc(F)c(B(O)O)cc1F")
0.63
>>> assayresult("OB(O)c1ccc(B(O)O)cc1")
0.39
>>> assayresult("OB(O)c1ccccc1B(O)O")
0.13
>>> assayresult("OB(O)c1ccc(F)cc1B(O)O")
0.22

* * *

System: K. pneumoniae ATCC BAA-1705 KPC-2-positive
experimentalProtocol: checkerboard microdilution, antibiotic plus tested agent
Type: cell-based, Klebsiella pneumoniae
Method: To examine the ability of tested agents to inhibit various carbapenemases and AmpC-enzymes, their synergy with antibiotics against β-lactamase-producing strains was assessed by checkerboard microdilution assay, with slight modification. […] Parallel, MICs of tested agents and PBA alone were determined by the microdilution assay. Following the incubation, antibiotic MICs in the presence of each agent’s concentration were determined. […]
quantityName: The lowest FICI with MEM

>>> assayresult("OB(O)c1ccc(B(O)O)cc1")
0.15
>>> assayresult("OB(O)c1ccccc1B(O)O")
0.17
>>> assayresult("OB(O)c1cc(F)ccc1F")
0.41
>>> assayresult("OB(O)c1ccc(F)cc1B(O)O")
0.51
>>> assayresult("OB(O)c1cc(F)c(B(O)O)c(F)c1")
0.29
>>> assayresult("OB(O)c1cc(F)c(B(O)O)cc1F")
0.33
>>> assayresult("OB(O)c1ccc(B(O)O)c(F)c1")
0.27
>>> assayresult("OB(O)c1ccccc1 [PBA, phenylboronic acid, reference compound]")
0.27

* * *

experimentalProtocol: MTT-based viability assay
Assay type: cell-based
settings: human, MRC-5 human fibroblasts; 25 mg/L, 72 h; read-out: Viability of MRC-5 cells (% of viable cells ± SD)
quantityName: viability at 72 h, 25 mg/L (%)

>>> assayresult("OB(O)c1ccc(B(O)O)c(B(O)O)c1")
106
>>> assayresult("OB(O)c1ccsc1B(O)O")
87.1
>>> assayresult("OB(O)c1cc(I)c(B(O)O)cc1I")
117
>>> assayresult("COc1c(B(O)O)cccc1B(O)O")
117
>>> assayresult("OB(O)c1ccc(B(O)O)s1")
110
>>> assayresult("OB(O)c1cc(F)c(B(O)O)cc1F")
105
>>> assayresult("COc1cc(B(O)O)c(OC)cc1B(O)O")
114
>>> assayresult("OB(O)c1cc(F)c(B(O)O)c(F)c1F")
89.9
>>> assayresult("OB(O)c1cc(C(F)(F)F)c(B(O)O)cc1C(F)(F)F")
104
>>> assayresult("OB(O)c1ccc(B(O)O)c(F)c1")
140
>>> assayresult("OB(O)c1cc(F)c(F)c(B(O)O)c1")
88
